Test: Human HepG2 cell viability assay in 384 well format
Type: toxicity, cell-based
Parameters: dose 125 nL, time 70.5 hour; concentration not given beside the values
Conditions: HepG2 cells, read-out: Inhibition
MEASURED PROPERTY: cytotoxicity at 70.5 h (%)
API: value field is a number in %; no unit string.

Recorded result, CNCCNc1nccc(-c2cn(C)nc2C)n1 , cytotoxicity at 70.5 h: -5.66

Summary for this molecule, CNS(=O)(=O)c1cccc(CNC(=O)c2cnn(C)c2C)c1 : cytotoxicity at 70.5 h is -11.8

// recorded cytotoxicity at 70.5 h for O=S(=O)(N1CCOCC1)N1CCCCC1CCc1ccc(O)cc1 (centres undefined) : -1.47

// sample O=C(CCc1cn[nH]c1)N1CCC(C2CCN(c3ncccn3)CC2)C1 (centres undefined) , its cytotoxicity at 70.5 h was 0.44

Looking up O=S1(=O)NC[C@H]2CCN(Cc3ccccc3)CC[C@H]21 , I see its cytotoxicity at 70.5 h listed as -2.52

Reported cytotoxicity at 70.5 h ( Fc1cccc2c1CCC2NCc1ccc(N2CCOCC2)cc1 (centres undefined) ) = 1.27

Record summary for O=C(Nc1cccc(C(F)(F)F)c1)N1CCN(CCn2ccnc2)CC1 : reported cytotoxicity at 70.5 h = -10.1

Looking up O=C1CNCC(C(=O)N2CC(Oc3ccccc3Cl)C2)N1 (centres undefined) , I found its cytotoxicity at 70.5 h recorded as -7.25

Cc1nc2cc(F)cc(C(=O)N3CCN(CCO)CC3)c2nc1C has a reported cytotoxicity at 70.5 h of -5.18

Value of cytotoxicity at 70.5 h reported for the molecule Cc1noc(C)c1CN(C)CC(=O)/N=c1\cc[nH]n1C(C)C1CC1 (centres undefined) is 22.1

For this molecule ( O=C(NCCNc1ncccn1)C1CCN(C(=O)N2CCCC2)CC1 ), measured cytotoxicity at 70.5 h is -12.3

Note to self: cytotoxicity at 70.5 h recorded for c1cncc(N2CCC(c3ccncc3)CC2)c1 was 3.31

Reported cytotoxicity at 70.5 h of Cc1ccc(Cl)c(CN2CCN(C)C(C(=O)O)C2)c1F (centres undefined) : -5.85

Kindly note the recorded cytotoxicity at 70.5 h for O=C(c1cscn1)N(CCCO)S(=O)(=O)c1cccs1 , which is 0.658

Noted for Cc1ccc2c(n1)N(CCN(C)C)CCN(Cc1c(C)noc1C)C2 : its cytotoxicity at 70.5 h reads -2.08

molecule CNc1ccnc(NCCC(=O)Nc2ccccc2OC)n1 , cytotoxicity at 70.5 h observed: -3.36

cytotoxicity at 70.5 h in this record for CC(C)N1CCc2c(c(COc3cccnc3)nn2CC2CC2)C1 : -2.06

Please fill in: cytotoxicity at 70.5 h reported for O=C(O)C1(n2ccc(-c3ccco3)n2)CCN(Cc2ccsc2)CC1 = -1.95

Lab note: measured cytotoxicity at 70.5 h of O=S1(=O)NC(C2CCN(Cc3ccccn3)CC2)Nc2ccccc21 (centres undefined) was -9.26

The recorded cytotoxicity at 70.5 h for entry Cn1cc(-c2nnn3c2COC(CNC(=O)c2cccs2)C3)cn1 (centres undefined) equals 22.3

get_value(item= COc1ccc(CN(Cc2cnc(N)nc2)CC2CCCO2)c(OC)c1 (centres undefined) , readout=cytotoxicity at 70.5 h) returns -2.54

The molecule CC(C)(C)c1nnc(CN2CCCC2c2noc(C3CC3)n2)o1 (centres undefined) showed cytotoxicity at 70.5 h equal to -8.8

The molecule listed as CCCC(C#N)NC(=O)Cc1csc(CC)n1 (centres undefined) shows cytotoxicity at 70.5 h equal to -0.509

Value of cytotoxicity at 70.5 h reported for the molecule CN(CC(O)C1CC1)C(=O)c1ccc(-c2nc(C3CC3)no2)cc1 (centres undefined) is 2.53

meta.source: ChEMBL document CHEMBL3507680
